Data provenance: patent US12441746B2

# TARGET_SYSTEM: HCK kinase (Homo sapiens, UniProt P08631)
# Construct: purchased Reaction Biology Corp
# Sequence (P08631 whole entry): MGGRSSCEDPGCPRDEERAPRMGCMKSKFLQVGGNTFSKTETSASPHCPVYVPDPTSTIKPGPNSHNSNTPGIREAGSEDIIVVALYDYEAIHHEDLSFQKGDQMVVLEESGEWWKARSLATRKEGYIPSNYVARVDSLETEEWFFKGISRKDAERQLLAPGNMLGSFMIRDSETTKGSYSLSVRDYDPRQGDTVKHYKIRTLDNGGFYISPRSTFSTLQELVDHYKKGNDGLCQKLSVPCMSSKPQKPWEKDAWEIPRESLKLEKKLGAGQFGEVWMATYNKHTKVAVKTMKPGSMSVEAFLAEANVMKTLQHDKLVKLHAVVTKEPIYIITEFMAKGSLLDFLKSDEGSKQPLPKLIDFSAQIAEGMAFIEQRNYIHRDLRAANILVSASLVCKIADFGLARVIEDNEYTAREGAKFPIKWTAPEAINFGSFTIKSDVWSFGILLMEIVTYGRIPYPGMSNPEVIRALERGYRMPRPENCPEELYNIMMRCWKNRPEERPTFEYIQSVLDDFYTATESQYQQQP
# PROCEDURE_SUMMARY: HCK activity inhibition, radioactive kinase assay (Reaction Biology Corp)
# Type: biochemical
# TEST_PARAMETERS: radioactive kinase assay, 33P-ATP, 2 hours at room temperature; read-out: IC50 for HCK activity
QUANTITY_KIND: IC50

**Query** Kindly indicate its recorded IC50. Item: Clc1cc(Cl)c2c(c1)C=C(C1=NOB(c3ccccc3)N1)C(c1ccccc1)O2 (stereo not shown)
**Result** ~12 µM

###

# TARGET_SYSTEM: HCK kinase (Homo sapiens, UniProt P08631)
# Construct: purchased Reaction Biology Corp
# PROCEDURE_SUMMARY: HCK activity inhibition, radioactive kinase assay (Reaction Biology Corp)
# Type: biochemical
# TEST_PARAMETERS: HCK; read-out: IC50
QUANTITY_KIND: IC50

**Query** Kindly indicate its recorded IC50. Item: Clc1cc(Cl)c2c(c1)C=C(C1=NOB(c3ccccc3)N1)C(c1ccccc1)O2 (stereo not shown)
**Result** < 20 µM
